FYI, the data here is from patent US20230158067A1.

tested on: SARS-CoV2; assay: microbe, parasite or virus in culture; assay type: cell-based; conditions: Severe acute respiratory syndrome coronavirus 2, Vero, 24 h
parameter: pEC50
Just so you know, pEC50 here is -log10 of the concentration in molar units; reply with that number alone.

stdin: Recorded pEC50 of `CCC(CC)COC(=O)[C@H](C)N[P@](=O)(OC[C@H]1O[C@@](C#N)(c2ccc3c(N)ncnn23)[C@H](O)[C@@H]1O)Oc1ccccc1` , please.
stdout: 6.18
